All values here come from ChEMBL document CHEMBL1759976.

Molecular target: Carbonic anhydrase 1 (Homo sapiens, UniProt P00915)
Sequence (P00915 whole entry): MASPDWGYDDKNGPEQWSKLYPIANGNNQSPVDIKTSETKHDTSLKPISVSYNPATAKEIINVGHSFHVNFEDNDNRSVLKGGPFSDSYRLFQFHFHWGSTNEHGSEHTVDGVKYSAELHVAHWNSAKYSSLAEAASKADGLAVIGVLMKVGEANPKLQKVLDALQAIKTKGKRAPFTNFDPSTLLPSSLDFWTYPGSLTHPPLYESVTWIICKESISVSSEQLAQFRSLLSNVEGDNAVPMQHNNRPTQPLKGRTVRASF
Please use 1 (yes) for Ki under 300 µM and 0 (no) for everything else, ties included.

compound: Nc1ccc(C(=O)O)cc1 [AMINOBENZOATE SODIUM]
category_label: 1 (yes)
//
compound: CCC(=O)[O-].[Na+] [SODIUM PROPIONATE]
category_label: 0 (no)

Prompt line: Please determine if CCCCC(CC)CCC(=O)O (stereo not given) is below 300 µM in terms of Ki.
Response line: 0 (no)

Prompt line: Please determine if CCCCC(CC)C(=O)O (stereo not given) is below 300 µM in terms of Ki.
Response line: 0 (no)

Prompt line: Please determine if CC(=O)Nc1ccc(C(=O)[O-])cc1.[Na+] is below 300 µM in terms of Ki.
Response line: 1 (yes)

Prompt line: Please determine if COc1ccc(C(N)=O)cc1 is below 300 µM in terms of Ki.
Response line: 1 (yes)

Prompt line: Please determine if CC(=O)[O-].[Na+] [SODIUM ACETATE] is below 300 µM in terms of Ki.
Response line: 1 (yes)

Prompt line: Please determine if COc1ccc(C(=O)O)cc1 is below 300 µM in terms of Ki.
Response line: 1 (yes)

Prompt line: Please determine if CCCC(=O)[O-].[Na+] [SODIUM BUTYRATE] is below 300 µM in terms of Ki.
Response line: 0 (no)

Prompt line: Please determine if CC(C)C(=O)[O-].[Na+] [SODIUM ISOBUTYRATE] is below 300 µM in terms of Ki.
Response line: 1 (yes)

Prompt line: Please determine if O=C(O)c1ccc(F)cc1 is below 300 µM in terms of Ki.
Response line: 1 (yes)

Prompt line: Please determine if O=C[O-].[Na+] [SODIUM FORMATE] is below 300 µM in terms of Ki.
Response line: 0 (no)

Prompt line: Please determine if CCCCC(=O)[O-].[Na+] [SODIUM VALERATE] is below 300 µM in terms of Ki.
Response line: 1 (yes)

Prompt line: Please determine if CCCC(C)C(=O)O (stereo not given) is below 300 µM in terms of Ki.
Response line: 0 (no)

----------
Catalogue of log10 Ki values
Assay: Inhibition of Candida albicans Nce103 beta-carbonic anhydrase by stopped flow CO2 hydration assay
Please keep in mind that the values are log10 of Ki expressed in µM.

Prompt line: Record request: log10 Ki value, item CN(C)c1ccc(C(=O)O)cc1
Response line: 0.72

Prompt line: Record request: log10 Ki value, item CCCCCC(C)C(=O)O (stereo not given)
Response line: 1.07

Prompt line: Record request: log10 Ki value, item COc1ccc(C(=O)O)cc1
Response line: -0.82

----------
Below are Ki values measured for Carbonic anhydrase 2 (Homo sapiens).
Respond numerically; units are µM and should not be typed.

Would you please look over these solved cases?
compound: O=C(O)c1ccc(F)cc1
unit_name: µM
Ki: 3.34
//
compound: CC(C)C(=O)[O-].[Na+] [SODIUM ISOBUTYRATE]
unit_name: µM
Ki: 350
//
compound: CCCCC(CC)C(=O)O (stereo not given)
unit_name: µM
Ki: 93
//
compound: CC(C)CC(=O)O [SODIUM ISOVALERATE]
unit_name: µM
Ki: 100
//
compound: CCCCCC(C)C(=O)O (stereo not given)
unit_name: µM
Ki: 110
//
compound: CCCCC(C)C(=O)O (stereo not given)
unit_name: µM
Ki: 103
//
compound: Nc1ccc(C(=O)O)cc1 [AMINOBENZOATE SODIUM]
unit_name: µM
Ki: 8.13
//
compound: CC(=O)Nc1ccc(C(=O)[O-])cc1.[Na+]
unit_name: µM
Ki: 7.28
//
compound: O=C(O)c1ccc(S(=O)(=O)N(Cl)Cl)cc1
unit_name: µM
Ki: 1.96

Shift focus to the following entry.
Prompt line: Record request: Ki value, item CCCC(C)C(=O)O (stereo not given)
Response line: 113
